The measurements presented in this section are drawn from patent US20230278972A1.

Here the recorded Plant response rating, Wheat is given for each entry.
# System: wheat (Triticum aestivum)
# Protocol: Test A postemergence, wheat
# Type: in vivo
# Reported Conditions: Postemergence, 1000 g ai/ha; visual injury, 0 to 100 scale (0 no effect, 100 complete control), approx. 10 days
Readout Type: Plant response rating, Wheat

# Structure Smiles String, Readout Type, Observed
measured = [
    ("Cc1ccc(C(=O)N2CCC(C(F)(F)F)CC2)cc1NS(=O)(=O)C(F)(F)F", "Plant response rating, Wheat", 0),
    ("COC1CCN(C(=O)c2cc(NS(=O)(=O)C(F)(F)F)c(C)cc2C)CC1", "Plant response rating, Wheat", 50),
    ("COC(=O)C1CCN(C(=O)c2cc(NS(=O)(=O)C(F)(F)F)c(C)cc2C)CC1", "Plant response rating, Wheat", 50),
    ("COc1cc(Cl)c(NS(=O)(=O)C(F)(F)F)cc1C(=O)N1CCOCC1", "Plant response rating, Wheat", 30),
    ("Cc1ccc(C(=O)N2CCCCC2)cc1NS(=O)(=O)C(F)(F)F", "Plant response rating, Wheat", 0),
    ("Cc1cc(C)c(C(=O)N2CCC(C(C)(C)C)CC2)cc1NS(=O)(=O)C(F)(F)F", "Plant response rating, Wheat", 0),
]

###

# System: horseweed (Erigeron canadensis)
# Protocol: Test A1 postemergence, horseweed
# Format: in vivo
# Reported Conditions: Postemergence, 125 g ai/ha; 0 to 100 scale (0 no effect, 100 complete control); 10 days
Reported Plant response rating, Horseweed values for a set of compounds
Readout Type: Plant response rating, Horseweed

# Compound, Observed
records = [
    ("Cc1cc(C)c(C2=NOC(C(C)C)C2)cc1NS(=O)(=O)C(F)(F)F (centres unmarked)", 30),
    ("Cc1cc(C)c(N(COC(=O)C(C)(C)C)S(=O)(=O)C(F)(F)F)cc1N1CCC2(CCC(C(F)(F)F)CC2)C1=O (centres unmarked)", 30),
    ("Cc1cc(Cl)c(NS(=O)(=O)C(F)(F)F)cc1N1CCC2(CCCCC2)C1=O", 30),
    ("Cc1cc(C)c(N(S(=O)(=O)C(F)(F)F)S(=O)(=O)C(F)(F)F)cc1N1CCC2(CCC(C(F)(F)F)CC2)C1=O (centres unmarked)", 50),
    ("Cc1cc(C)c(N2CCC3(CCC(C(F)(F)F)CC3)C2=O)cc1NS(=O)(=O)C(F)(F)F (centres unmarked)", 80),
]

###

# Tested on: ragweed (common ragweed, Ambrosia artemisiifolia)
# Protocol: Test A1 postemergence, ragweed
# Assay type: in vivo
# Reported Conditions: Postemergence, 125 g ai/ha; 0 to 100 scale (0 no effect, 100 complete control); 10 days
Measured Plant response rating, Ragweed, listed per entry.

# Compound, Plant response rating, Ragweed
records = [
    ("Cc1cc(C)c(N2Cc3cccc(Br)c3C2=O)cc1NS(=O)(=O)Cl [Compound 415]", 70),
    ("COC1CCC2(CC1)CCN(c1cc(NS(=O)(=O)C(F)(F)F)c(C)cc1C)C2=O (centres unmarked) [Compound 398]", 80),
    ("Cc1cc(C)c(N2Cc3cccc(C)c3C2=O)cc1NS(=O)(=O)Cl [Compound 408]", 90),
    ("Cc1c(NS(=O)(=O)C(F)(F)F)cc(C2=NOC3(CCCC3)C2)c(C)c1C [Compound 380]", 60),
    ("Cc1cc(C)c(N(COC(=O)C(C)(C)C)S(=O)(=O)C(F)(F)F)cc1N1CCC2(CCC(C)CC2)C1=O (centres unmarked) [Compound 401]", 90),
]
